Tested on: 521955-158-R2-J5-PDC complex spheroids, viability
assay_notes: Anticancer human tumor 521955-158-R2-J5-PDC patient-derived pancreatic carcinoma cell line growth inhibition [RAS]
condition_label: second compound 0.000949 µM; first compound 0.01 µM; stronger effect = lower value
From the text: RAS pathway inhibitors in Combinations in Complex Spheroids A high-throughput screen of multi-cell type tumor spheroids was designed to identify active combinations of RAS pathway inhibitors and targeted small molecules. Complex spheroids include a stromal component modeled by human endothelial cells (HUVEC) and fibroblasts modeled by human mesenchymal stem cells (MSCs). […] Compounds. […] If the clinical Cmax for an agent had not been determined, the highest concentration tested was 10 microM. […]
Could you please report measured viability, T/C for the items listed next?
Write down the numeric answer in % and omit the unit.

So, C=CC(=O)Nc1cc(Nc2nccc(-c3cn(C)c4ccccc34)n2)c(OC)cc1N(C)CCN(C)C + CCn1c(-c2cc(N3CCN(C)CC3)cnc2C(C)OC)c2c3cc(ccc31)-c1csc(n1)CC(NC(=O)C1CC1C)C(=O)N1CCCC(N1)C(=O)OCC(C)(C)C2 ? Its viability, T/C was 53.5

Per the record, C=CC(=O)N1CCN(c2nc(OCC3CCCN3C)nc3c(F)c(-c4nc(N)cc(C)c4C(F)(F)F)c(Cl)cc23)C(C)C1 (centres undefined) + CCn1c(-c2cccnc2C(C)OC)c2c3cc(ccc31)N1CCOC(CC(NC(=O)C(C(C)C)N(C)C(=O)C3(F)CCN(C(=O)C#CC(C)(C)N(C)C)CC3)C(=O)N3CCCC(N3)C(=O)OCC(C)(C)C2)C1 has viability, T/C of 104

The molecule listed as CC(C)n1nc(-c2ccc3oc(N)nc3c2)c2c(N)ncnc21 + CCn1c(-c2cccnc2C(C)OC)c2c3cc(ccc31)N1CCOC(CC(NC(=O)C(C(C)C)N(C)C(=O)C3(F)CCN(C(=O)C#CC(C)(C)N(C)C)CC3)C(=O)N3CCCC(N3)C(=O)OCC(C)(C)C2)C1 has a reported viability, T/C of 61.4

So, CCN1CCN(Cc2ccc(Nc3ncc(F)c(-c4cc(F)c5nc(C)n(C(C)C)c5c4)n3)nc2)CC1 + CCn1c(-c2cccnc2C(C)OC)c2c3cc(ccc31)N1CCOC(CC(NC(=O)C(C(C)C)N(C)C(=O)C3(F)CCN(C(=O)C#CC(C)(C)N(C)C)CC3)C(=O)N3CCCC(N3)C(=O)OCC(C)(C)C2)C1 ? Its viability, T/C was 87.4

* * *

Consider the following molecules; for each one, report its viability, T/C.
Tested on: 521955-158-R2-J5-PDC complex spheroids, viability
assay_notes: Anticancer human tumor 521955-158-R2-J5-PDC cell line growth inhibition [RAS];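 also: spheroids also contain HUVEC endothelial cells and mesenchymal stem cells as stroma; compound exposure lasted seven days before the viability read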
condition_label: second compound 0.003 µM; first compound 0.00316 µM; stronger effect = lower value

C=CC(=O)N1CCN(c2nc(OCC3CCCN3C)nc3c(F)c(-c4nc(N)cc(C)c4C(F)(F)F)c(Cl)cc23)C(C)C1 (configuration not stated) + CCn1c(-c2cccnc2C(C)OC)c2c3cc(ccc31)N1CCOC(CC(NC(=O)C(C(C)C)N(C)C(=O)C3(F)CCN(C(=O)C#CC(C)(C)N(C)C)CC3)C(=O)N3CCCC(N3)C(=O)OCC(C)(C)C2)C1 yielded viability, T/C of 93.2%

Form: molecule = Nc1ccn(C2OC(CO)C(O)C2(F)F)c(=O)n1 (configuration not stated) + CCn1c(-c2cccnc2C(C)OC)c2c3cc(ccc31)N1CCOC(CC(NC(=O)C(C(C)C)N(C)C(=O)C3(F)CCN(C(=O)C#CC(C)(C)N(C)C)CC3)C(=O)N3CCCC(N3)C(=O)OCC(C)(C)C2)C1 ; viability, T/C = 97.8%

Entry CCN1CCN(Cc2ccc(Nc3ncc(F)c(-c4cc(F)c5nc(C)n(C(C)C)c5c4)n3)nc2)CC1 + CCn1c(-c2cc(N3CCN(C)CC3)cnc2C(C)OC)c2c3cc(ccc31)-c1csc(n1)CC(NC(=O)C1CC1C)C(=O)N1CCCC(N1)C(=O)OCC(C)(C)C2 ; viability, T/C = 39.4%

Query C=CC(=O)N1CCN(c2nc(OCC3CCCN3C)nc3c(F)c(-c4nc(N)cc(C)c4C(F)(F)F)c(Cl)cc23)C(C)C1 (configuration not stated) + CCn1c(-c2cc(N3CCN(C)CC3)cnc2C(C)OC)c2c3cc(ccc31)-c1csc(n1)CC(NC(=O)C1CC1C)C(=O)N1CCCC(N1)C(=O)OCC(C)(C)C2 yields viability, T/C of 39.4%

// O=C(c1ccc(F)c(F)c1Nc1ccc(I)cc1F)N1CC(O)([C@@H]2CCCCN2)C1 + CCn1c(-c2cccnc2C(C)OC)c2c3cc(ccc31)N1CCOC(CC(NC(=O)C(C(C)C)N(C)C(=O)C3(F)CCN(C(=O)C#CC(C)(C)N(C)C)CC3)C(=O)N3CCCC(N3)C(=O)OCC(C)(C)C2)C1 : viability, T/C value = 77.6%

get_value(item= C=CC(=O)Nc1cc(Nc2nccc(-c3cn(C)c4ccccc34)n2)c(OC)cc1N(C)CCN(C)C + CCn1c(-c2cc(N3CCN(C)CC3)cnc2C(C)OC)c2c3cc(ccc31)-c1csc(n1)CC(NC(=O)C1CC1C)C(=O)N1CCCC(N1)C(=O)OCC(C)(C)C2 , readout=viability, T/C) returns 40.9%

The molecule Nc1ccn(C2OC(CO)C(O)C2(F)F)c(=O)n1 (configuration not stated) + CCn1c(-c2cc(N3CCN(C)CC3)cnc2C(C)OC)c2c3cc(ccc31)-c1csc(n1)CC(NC(=O)C1CC1C)C(=O)N1CCCC(N1)C(=O)OCC(C)(C)C2 showed viability, T/C equal to 39%

Note to self: viability, T/C recorded for CCN1CCN(Cc2ccc(Nc3ncc(F)c(-c4cc(F)c5nc(C)n(C(C)C)c5c4)n3)nc2)CC1 + CCn1c(-c2cccnc2C(C)OC)c2c3cc(ccc31)N1CCOC(CC(NC(=O)C(C(C)C)N(C)C(=O)C3(F)CCN(C(=O)C#CC(C)(C)N(C)C)CC3)C(=O)N3CCCC(N3)C(=O)OCC(C)(C)C2)C1 was 88.6%

Data point: CC(C)n1nc(-c2ccc3oc(N)nc3c2)c2c(N)ncnc21 + CCn1c(-c2cc(N3CCN(C)CC3)cnc2C(C)OC)c2c3cc(ccc31)-c1csc(n1)CC(NC(=O)C1CC1C)C(=O)N1CCCC(N1)C(=O)OCC(C)(C)C2 ; viability, T/C = 28.7%

According to the records, this molecule C=CC(=O)Nc1cc(Nc2nccc(-c3cn(C)c4ccccc34)n2)c(OC)cc1N(C)CCN(C)C + CCn1c(-c2cccnc2C(C)OC)c2c3cc(ccc31)N1CCOC(CC(NC(=O)C(C(C)C)N(C)C(=O)C3(F)CCN(C(=O)C#CC(C)(C)N(C)C)CC3)C(=O)N3CCCC(N3)C(=O)OCC(C)(C)C2)C1 displays viability, T/C of 110%

Briefly, viability, T/C measured for CC(C)n1nc(-c2ccc3oc(N)nc3c2)c2c(N)ncnc21 + CCn1c(-c2cccnc2C(C)OC)c2c3cc(ccc31)N1CCOC(CC(NC(=O)C(C(C)C)N(C)C(=O)C3(F)CCN(C(=O)C#CC(C)(C)N(C)C)CC3)C(=O)N3CCCC(N3)C(=O)OCC(C)(C)C2)C1 : 91.4%

For this molecule ( O=C(c1ccc(F)c(F)c1Nc1ccc(I)cc1F)N1CC(O)([C@@H]2CCCCN2)C1 + CCn1c(-c2cc(N3CCN(C)CC3)cnc2C(C)OC)c2c3cc(ccc31)-c1csc(n1)CC(NC(=O)C1CC1C)C(=O)N1CCCC(N1)C(=O)OCC(C)(C)C2 ), measured viability, T/C is 41.5%
